# Tested on: panel of 55 breast cancer cell lines
# experimental-protocol: Cell growth inhibition assay (Cell Titer Glo, 72 h, 9 doses; GI50, TGI, LC50)
# Format: cell-based, human
# assay-context: cell line SUM1315MO; value is the negative log10 of mol/L
For each of the compounds below, state its GI50.
Reply briefly: the number, and no unit.

Request: Bench note: what GI50 did N.N.O=C([O-])C1(C(=O)[O-])CCC1.[Pt+2] show?
Response: 4.56

Request: Bench note: what GI50 did O=c1[nH]c(=O)n([C@H]2C[C@H](O)[C@@H](CO)O2)cc1F show?
Response: 3.37

Request: Bench note: what GI50 did C=CCNC1=C2C[C@@H](C)C[C@H](OC)[C@H](O)[C@@H](C)/C=C(\C)[C@H](OC(N)=O)[C@@H](OC)/C=C\C=C(/C)C(=O)NC(=CC1=O)C2=O show?
Response: 7.66

Request: Bench note: what GI50 did O=c1[nH]c2ccccc2n1C1CCN(Cc2ccc(-c3nc4cc5[nH]cnc5cc4nc3-c3ccccc3)cc2)CC1 show?
Response: 5.33

* * *

# System: panel of 55 breast cancer cell lines
# experimental-protocol: Cell growth inhibition assay (Cell Titer Glo, 72 h, 9 doses; GI50, TGI, LC50)
# Assay type: cell-based, human
# assay-context: Homo sapiens, HCC1428, cell line HCC1428; read-out: GI50 (converted)
observable: GI50
Remember to put the unit after the number in your answer.

Request: Bench note: what GI50 did CN(C)C/C=C/C(=O)Nc1cc2c(Nc3ccc(F)c(Cl)c3)ncnc2cc1O[C@H]1CCOC1 show?
Response: 1.74 µM

Request: Bench note: what GI50 did Cc1cncc2cccc(S(=O)(=O)N3CCCN(C(=O)CN)C[C@@H]3C)c12 show?
Response: 50.1 µM

Request: Bench note: what GI50 did CC(=O)O[C@@]12CO[C@@H]1C[C@H](O)[C@@]1(C)C(=O)[C@H](O)C3=C(C)[C@@H](OC(=O)[C@H](O)[C@@H](NC(=O)OC(C)(C)C)c4ccccc4)C[C@@](O)([C@@H](OC(=O)c4ccccc4)[C@H]21)C3(C)C show?
Response: 5.01 µM

Request: Bench note: what GI50 did COc1cccc2c1C(=O)c1c(O)c3c(c(O)c1C2=O)C[C@@](O)(C(=O)CO)C[C@@H]3O[C@H]1C[C@H](N)[C@@H](O)[C@H](C)O1 [Epirubicin] show?
Response: 1.35 µM

Request: Bench note: what GI50 did CO[C@H]1C[C@@H]2CC[C@@H](C)[C@@](O)(O2)C(=O)C(=O)N2CCCC[C@H]2C(=O)O[C@H]([C@H](C)C[C@@H]2CC[C@@H](O)[C@H](OC)C2)CC(=O)[C@H](C)/C=C(\C)[C@@H](O)[C@@H](OC)C(=O)[C@H](C)C[C@H](C)/C=C/C=C/C=C/1C show?
Response: 0.0513 µM

Request: Bench note: what GI50 did CS(=O)(=O)CCNCc1ccc(-c2ccc3ncnc(Nc4ccc(OCc5cccc(F)c5)c(Cl)c4)c3c2)o1 show?
Response: 16.6 µM

* * *

For each of the molecules below, state its GI50.
# Tested on: panel of 55 breast cancer cell lines
# experimental-protocol: Cell growth inhibition assay (Cell Titer Glo, 72 h, 9 doses; GI50, TGI, LC50)
# Assay type: cell-based, human
# assay-context: cell line CAMA1; value is the negative log10 of mol/L
Reply briefly: the number, and no unit.

Request: Bench note: what GI50 did C=CCNC1=C2C[C@@H](C)C[C@H](OC)[C@H](O)[C@@H](C)/C=C(\C)[C@H](OC(N)=O)[C@@H](OC)/C=C\C=C(/C)C(=O)NC(=CC1=O)C2=O show?
Response: 6.57

Request: Bench note: what GI50 did NS(=O)(=O)c1ccc(Nc2nc(OCC3CCCCC3)c3[nH]cnc3n2)cc1 show?
Response: 4.91

Request: Bench note: what GI50 did N.N.O=C([O-])C1(C(=O)[O-])CCC1.[Pt+2] show?
Response: 3.72

Request: Bench note: what GI50 did N#Cc1c(NC(=O)c2cccc3ccccc23)sc2c1CCCC2 show?
Response: 5.48

Request: Bench note: what GI50 did CC(=O)Nc1cccc(-n2c(=O)n(C3CC3)c(=O)c3c(Nc4ccc(I)cc4F)n(C)c(=O)c(C)c32)c1.C[S+](C)[O-] [GSK1120212B] show?
Response: 4.78

Request: Bench note: what GI50 did Oc1cc(-c2nc(-c3ccccc3)[nH]c2-c2ccncc2)ccc1Cl show?
Response: 4.44

Request: Bench note: what GI50 did COc1cc2c(Nc3ccc(NC(=O)c4ccccc4)cc3)ncnc2cc1OCCCN1CCOCC1 show?
Response: 5.40

Request: Bench note: what GI50 did O=c1[nH]c(=O)n([C@H]2C[C@H](O)[C@@H](CO)O2)cc1F show?
Response: 3.51

* * *

# System: panel of 55 breast cancer cell lines
# experimental-protocol: Cell growth inhibition assay (Cell Titer Glo, 72 h, 9 doses; GI50, TGI, LC50)
# Format: cell-based, human
# assay-context: Homo sapiens, HCC1143, HCC1143 cell line; censored GI50 values; read-out: GI50 (converted)
Could you please mark satisfied for values of GI50 below 300 nM and not satisfied for values at or above it?

Request: Hello, I'm reviewing records and need to know if GI50 of C/C(=C\c1csc(C)n1)[C@@H]1C[C@@H]2O[C@]2(C)CCC[C@H](C)[C@H](O)[C@@H](C)C(=O)C(C)(C)[C@@H](O)CC(=O)N1 [Ixabepilone] is below 300 nM. Could you check?
Response: satisfied

Request: Hello, I'm reviewing records and need to know if GI50 of CCC1=C[C@@H]2CN(C1)Cc1c([nH]c3ccccc13)[C@@](C(=O)OC)(c1cc3c(cc1OC)N(C)[C@H]1[C@@](O)(C(=O)OC)[C@H](OC(C)=O)[C@]4(CC)C=CCN5CC[C@]31[C@@H]54)C2 [Vinorelbine] is below 300 nM. Could you check?
Response: satisfied

Request: Hello, I'm reviewing records and need to know if GI50 of COc1cccc2c1C(=O)c1c(O)c3c(c(O)c1C2=O)C[C@@](O)(C(=O)CO)C[C@@H]3O[C@H]1C[C@H](N)[C@@H](O)[C@H](C)O1 [Epirubicin] is below 300 nM. Could you check?
Response: satisfied

Request: Hello, I'm reviewing records and need to know if GI50 of COc1cc([C@@H]2c3cc4c(cc3[C@@H](O[C@@H]3O[C@@H]5CO[C@@H](C)O[C@H]5[C@H](O)[C@H]3O)[C@H]3COC(=O)[C@H]23)OCO4)cc(OC)c1O [Etoposide] is below 300 nM. Could you check?
Response: not satisfied

Request: Hello, I'm reviewing records and need to know if GI50 of CCN(CC)CCNC(=O)c1c(C)[nH]c(/C=C2\C(=O)Nc3ccc(F)cc32)c1C [Sunitinib Malate] is below 300 nM. Could you check?
Response: not satisfied

Request: Hello, I'm reviewing records and need to know if GI50 of CC(=O)O[C@@]12CO[C@@H]1C[C@H](O)[C@@]1(C)C(=O)[C@H](O)C3=C(C)[C@@H](OC(=O)[C@H](O)[C@@H](NC(=O)OC(C)(C)C)c4ccccc4)C[C@@](O)([C@@H](OC(=O)c4ccccc4)[C@H]21)C3(C)C [Docetaxel] is below 300 nM. Could you check?
Response: satisfied

* * *

# Test system: panel of 55 breast cancer cell lines
# experimental-protocol: Cell growth inhibition assay (Cell Titer Glo, 72 h, 9 doses; GI50, TGI, LC50)
# Format: cell-based, human
# assay-context: Homo sapiens, HCC38, HCC38 cell line; censored GI50 values; read-out: GI50 (converted)
observable: GI50 (µM)
Give the value, in units of µM, as a plain number.

Request: Bench note: what GI50 did CO[C@H]1C[C@@H]2CC[C@@H](C)[C@@](O)(O2)C(=O)C(=O)N2CCCC[C@H]2C(=O)O[C@H]([C@H](C)C[C@@H]2CC[C@@H](O)[C@H](OC)C2)CC(=O)[C@H](C)/C=C(\C)[C@@H](O)[C@@H](OC)C(=O)[C@H](C)C[C@H](C)/C=C/C=C/C=C/1C show?
Response: 0.0339

Request: Bench note: what GI50 did COc1cc([C@@H]2c3cc4c(cc3[C@@H](O[C@@H]3O[C@@H]5CO[C@@H](C)O[C@H]5[C@H](O)[C@H]3O)[C@H]3COC(=O)[C@H]23)OCO4)cc(OC)c1O [Etoposide] show?
Response: 0.295

Request: Bench note: what GI50 did COc1cc(Nc2c(C#N)cnc3cc(OCCCN4CCN(C)CC4)c(OC)cc23)c(Cl)cc1Cl show?
Response: 0.891

Request: Bench note: what GI50 did C/C(=C\c1csc(C)n1)[C@@H]1C[C@@H]2O[C@]2(C)CCC[C@H](C)[C@H](O)[C@@H](C)C(=O)C(C)(C)[C@@H](O)CC(=O)N1 [Ixabepilone] show?
Response: 0.00282

Request: Bench note: what GI50 did COc1cccc2c1C(=O)c1c(O)c3c(c(O)c1C2=O)C[C@@](O)(C(=O)CO)C[C@@H]3O[C@H]1C[C@H](N)[C@@H](O)[C@H](C)O1 [Epirubicin] show?
Response: 0.0933
